Value source: PubChem BioAssay (NCI)

experiment: NCI Yeast Anticancer Drug Screen. Data for the mec2-1 strain (AID 157); conditions: S. cerevisiae mec2-1 strain, at 50.0 µM
About 79,000 compounds went through this panel and 15% of them were active in at least one assay; those are over-represented in the sample as a whole. The source made the active and inactive calls. No stated cut-off is given here; in the data, active means growth inhibition above about 70%; inactive means the rest.
Classes used: YES = active, NO = inactive

{"columns": ["compound", "group"],
 "data": [
  ["c1ccc2c(c1)C(=C1c3ccccc3-c3ccccc31)c1ccccc1-2", "NO"],
  ["O=C(CBr)c1ccc(S(=O)(=O)c2ccccc2)cc1", "YES"],
  ["CCCCCCCCCCCCC#N", "NO"],
  ["O=C(O)c1ccccc1CC(Cc1ccccc1)C(=O)O (configuration not stated)", "NO"],
  ["CCCN1COC(OCCN(CC)CC)C(C)(C)C1 (configuration not stated)", "NO"],
  ["CC1CCC(C(C)C)N(C)CC1 (configuration not stated)", "NO"],
  ["O=C1Sc2ccccc2C(=O)N2CCCC12 (configuration not stated)", "NO"],
  ["CCC/C=C1\\CCC(CN(C)C)C1=O (configuration not stated)", "NO"],
  ["CC(=O)OC1(C#N)CCCCC1", "NO"],
  ["COCCNC(=O)C(C)O (configuration not stated)", "NO"],
  ["CCN(CC)CCCOC(c1ccccc1)c1ccc(Cl)cc1 (configuration not stated)", "NO"],
  ["Nc1cn(C2CC(O)C(CO)O2)c(=O)[nH]c1=O (configuration not stated)", "NO"],
  ["CC(C)CCC(=O)OC/C(=N\\Nc1ccc([N+](=O)[O-])cc1[N+](=O)[O-])c1ccc(-c2ccccc2)cc1", "NO"],
  ["CCOc1c[n+](C)c(/C=C/c2ccccc2)s1", "NO"],
  ["CC(CCCSC(=N)N)SC(=N)N (configuration not stated)", "NO"],
  ["CCOC(=O)C/C(C)=N\\NC(N)=O", "NO"],
  ["Nc1nc(-c2ccncc2)cc(-c2cc(-c3ccncc3)nc(N)n2)n1", "NO"],
  ["O=C(CSc1nc2ccccc2c2ccccc12)c1ccccc1", "NO"],
  ["C1CCN(c2nsc(N3CCCCC3)n2)CC1", "NO"],
  ["CC(C)NS(=O)(=O)c1ccc(Cl)cc1", "NO"],
  ["C/C=C/c1ccc(OC(C)C(=O)c2ccc3c(c2)OCO3)c(OC)c1 (configuration not stated)", "NO"],
  ["CCOC(=O)c1[nH]c2cccc3c2c1CC[C@H](NC(=O)C(F)(F)F)C3=O", "NO"],
  ["Cc1ccc(C(C)C)cc1NC(=O)NCCCl", "NO"],
  ["O=C(NCCN1CCCC1)Nc1ccccc1", "NO"],
  ["O=c1[nH]cnc2c1nnn2CCCCCCCCCCCCn1nnc2c(=O)[nH]cnc21", "NO"],
  ["C=C(C)C1CC=C(C)/C(=N\\O)C1 (configuration not stated)", "NO"],
  ["O=C(COc1ccc(Cl)cc1Cl)Nc1c(Cl)cc(Cl)cc1Cl", "NO"]
]}

---

# growth inhibition per record follows
assay: NCI Yeast Anticancer Drug Screen. Data for the cln2 rad14 strain (AID 165);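 further: 0% = growth equal to vehicle treated cultures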; conditions: S. cerevisiae cln2 rad14 strain, at 50.0 µM, active compounds read high
About 79,000 compounds went through this panel and 15% of them were active in at least one assay; those are over-represented in the sample as a whole.
recordedMetric: growth inhibition (%)

{"columns": ["molecule", "quantityUnit", "resultNumber"],
 "data": [
  ["CO[C@@H]1C=C[C@@]23c4cc5c(cc4CN(C[C@@H]2O)[C@H]3C1)OCO5", "%", 14.8],
  ["C[C@]12CCC(=O)C=C1CC[C@@H]1[C@@H]2CC[C@]2(C)C(=O)NC(=O)C[C@@H]12", "%", 24.9],
  ["CCCCCCCNc1nc(N)nc(Cl)n1", "%", 8.75],
  ["COc1ccc(Nc2nc3cc(C(F)(F)F)ccc3nc2-c2ccccc2)cc1OC", "%", -4.85],
  ["CC(C)(Oc1ccc(/C=C/C(=O)c2ccc(Cl)cc2)cc1)C(=O)Nc1c(Cl)cccc1Cl", "%", 12.1],
  ["COC1=C(OC)CCC(/C(C#N)=C/c2ccc(OC)c(OC)c2)=C1", "%", -11.8],
  ["COCNC(=O)NCC(F)(F)C(F)(F)C(F)(F)C(F)(F)C(F)(F)C(F)(F)C(F)(F)F", "%", 15.9],
  ["C/C(CC(=O)Nc1ccc(NC(=O)/C(C)=N/NS(=O)(=O)c2ccc(C)cc2)cc1)=N\\NS(=O)(=O)c1ccc(C)cc1", "%", -6.35],
  ["COC(=O)C1=C(C(=O)OC)SC(=CC#CC=C2SC(C(=O)OC)=C(C(=O)OC)S2)S1", "%", -59.7],
  ["Clc1ccc(CSc2nnc(SCc3ccc(Cl)c(Cl)c3)c3[nH]cnc23)cc1Cl", "%", 30.6],
  ["C/C(Nc1ccc(Cl)cc1)=C1/CCOC1=O", "%", 13.1],
  ["S=C(N/N=C\\c1ccccc1)Nc1ccccc1", "%", 8.65],
  ["Nc1ccc2c(c1)NCC2", "%", 12.1],
  ["Nc1cc(Cl)c(N)c(Cl)c1", "%", 14.1],
  ["[O-]/[N+]1=[N+](\\[O-])c2ccccc2CCCc2ccccc21", "%", -34.1],
  ["CC(C)(C)C(=O)Oc1ccc[nH]c1=O", "%", -27.6],
  ["OC1CC2CCC(C1)N2c1ccccc1 (stereo not drawn)", "%", -29.9],
  ["CCN(CC)C(=S)Oc1cc(C)nc(SCC(=O)c2ccc(Cl)cc2)n1", "%", 29.2],
  ["C(=C\\c1ccccn1)/c1ccc(/C=C/c2ccccn2)cc1", "%", -26.8],
  ["O=[N+]([O-])c1ccccc1C1N2CCCCC2[C@@H]2c3[nH]c4ccccc4c3CCN12 (stereo partly drawn)", "%", 1.85],
  ["OCCN(CCO)c1nc(N(CCO)CCO)nc(N(CCO)CCO)n1", "%", 31.5],
  ["CSC(SC)[P+](c1ccccc1)(c1ccccc1)c1ccccc1", "%", 93.5],
  ["O=C(NO)/C(CC(=O)c1ccccc1O)=N\\O", "%", -2.05]
]}

---

test: NCI Yeast Anticancer Drug Screen. Data for the rad50 strain (AID 155);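 further: 0% = growth of vehicle-only cultures of the same strain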; conditions: S. cerevisiae rad50 strain growth inhibition; at 50.0 µM; active compounds read high
This is part of a sample that, as a whole, favours compounds with a hit. Of some 79,000 tested, about 15% had one in any assay.
# growth inhibition per record follows
recordedMetric: growth inhibition (%)

{"columns": ["compound", "resultNumber"],
 "data": [
  ["COc1cc2c[n+]3c4c(cccc4c2cc1OC)CC3", 5.75],
  ["CC(=O)OCC1OC(Nc2[nH]c(=O)n(C)c(=O)c2C(=O)CCl)C(OC(C)=O)C(OC(C)=O)C1OC(C)=O (stereo not given)", 5.15],
  ["CC(=O)Nc1ccc(F)c(F)c1", 17.8],
  ["COc1ccc2c(c1)[n+]([O-])c(/C(C)=N/NC(=O)c1ccccc1O)c(C)[n+]2[O-]", 16.2],
  ["CCCCCCCCCCCCCCCc1cc(=O)n(-c2ccc(NC(C)=O)cc2)n1C", -2],
  ["Cc1ccc([N+](=O)[O-])c(N)c1", 40.5],
  ["Oc1ccc(Cl)cc1CN1CCOCC1", 31.3],
  ["NS(=O)(=O)c1ccc(NC(=O)CC(=O)c2ccccc2)cc1", -57.4],
  ["C=CCC1(C(=O)NC)c2ccccc2-c2ccccc21", -8.85],
  ["O=c1[nH]c2c(Cl)cc(Cl)c(Cl)c2c2ccccc12", -0.45],
  ["CCOC(=O)C/C(C)=N/NS(=O)(=O)c1ccc(NC(C)=O)cc1", -7.6],
  ["COc1ccc2c(c1)C(O)C(NCc1ccccc1)C2 (stereo not given)", -13.6],
  ["O=C(O)C(C1=CCCCC1)C1(O)CCCCC1 (stereo not given)", -9.15],
  ["CC1CCC2C(C)C3C(CC4C5CC=C6CC(O)CCC6(C)C5CCC43C=O)N2C1 (stereo not given)", 30.3],
  ["O=C(NCN1CCOCC1)Nc1ccc(Cl)cc1", -13.4],
  ["O=C1C=C(C2=CC(=O)C(=O)c3ccccc32)c2ccccc2C1=O", 27.5],
  ["COc1c(Cl)cc(Cl)c(C)c1C(C)C(=O)O (stereo not given)", 21.4],
  ["CSC1=Nc2cc3c(cc2C(=O)N2C[C@H](O)CC12)OCO3 (stereo not given in full)", -20.9],
  ["CC(C(=O)O)N(C)C(=O)c1cnc2ccccc2n1 (stereo not given)", -0.1],
  ["Nc1nc(N)nc(CCC(Br)(Br)Br)n1", 26.6],
  ["CCc1nc(N)nc(N)c1-c1ccc2c(c1)nnn2CCc1ccccc1", 11.2],
  ["Cc1cc2nc3n(c2cc1C)C(=O)c1cc2ccccc2cc1-3", -8.55],
  ["Nc1ncccc1C(=O)O", 2.55],
  ["CCO/C=N/c1oc(-c2ccccc2)nc1C#N", 4.6],
  ["CCCCOC(=O)C(=O)OCCCC", 13.7]
]}
